For each record, write down the corresponding viability, T/C.
- Test system: 494315-158-R-J1-PDC complex spheroid growth, percent test/control
- EXPERIMENT NOTES: Anticancer human tumor 494315-158-R-J1-PDC patient-derived soft tissue sarcoma cell line growth inhibition [Asc]
- RUN CONDITIONS: second compound 0.03 µM; first compound 0.0316 µM; active compounds read low
One number for each entry, in %.

Please review the entries below; each comes with its answer.
NC1CCC(NC2CC2c2ccccc2)CC1 (configuration not stated) + CCN1C(C(=O)NC23CCC(C(=O)O)(CC2)CC3)C(c2cccc(Cl)c2F)C2(C(=O)Nc3cc(Cl)ccc32)C12CCCCC2: 112
C=CC(=O)N1CCN(c2nc(=O)n(-c3c(C)ccnc3C(C)C)c3nc(-c4c(O)cccc4F)c(F)cc23)C(C)C1 (configuration not stated) + CCN1C(C(=O)NC23CCC(C(=O)O)(CC2)CC3)C(c2cccc(Cl)c2F)C2(C(=O)Nc3cc(Cl)ccc32)C12CCCCC2: 111
CCN1CCN(Cc2ccc(Nc3ncc(F)c(-c4cc(F)c5nc(C)n(C(C)C)c5c4)n3)nc2)CC1 + CCN1C(C(=O)NC23CCC(C(=O)O)(CC2)CC3)C(c2cccc(Cl)c2F)C2(C(=O)Nc3cc(Cl)ccc32)C12CCCCC2: 94.2
C=C(F)C(=O)N1CCN(c2nc(OCC3CCCN3C)nc3c2CCN(c2cccc4cccc(Cl)c24)C3)CC1CC#N (configuration not stated) + CCN1C(C(=O)NC23CCC(C(=O)O)(CC2)CC3)C(c2cccc(Cl)c2F)C2(C(=O)Nc3cc(Cl)ccc32)C12CCCCC2: 106
O=C(c1ccc(F)c(F)c1Nc1ccc(I)cc1F)N1CC(O)([C@@H]2CCCCN2)C1 + CCN1C(C(=O)NC23CCC(C(=O)O)(CC2)CC3)C(c2cccc(Cl)c2F)C2(C(=O)Nc3cc(Cl)ccc32)C12CCCCC2: 121

Hey, quick one: what's viability, T/C for each of these?
1. CNC(C)C(=O)NC1CN(S(=O)(=O)c2cccc(S(=O)(=O)N3CCC4CCC(C(=O)NC(c5ccccc5)c5ccccc5)N4C(=O)C(NC(=O)C(C)NC)C3)c2)CCC2CCC(C(=O)NC(c3ccccc3)c3ccccc3)N2C1=O (configuration not stated) + CCN1C(C(=O)NC23CCC(C(=O)O)(CC2)CC3)C(c2cccc(Cl)c2F)C2(C(=O)Nc3cc(Cl)ccc32)C12CCCCC2
2. C#Cc1c(F)ccc2cc(O)cc(-c3ncc4c(N5CC6CCC(C5)N6)nc(OCC56CCCN5CC(F)C6)nc4c3F)c12 (configuration not stated) + CCN1C(C(=O)NC23CCC(C(=O)O)(CC2)CC3)C(c2cccc(Cl)c2F)C2(C(=O)Nc3cc(Cl)ccc32)C12CCCCC2

output:
1: 54; 2: 94.3

----------
- Tested on: 494315-158-R-J1-PDC complex spheroid growth, percent test/control
- EXPERIMENT NOTES: Anticancer human tumor 494315-158-R-J1-PDC cell line growth inhibition [Asc];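 note: compound exposure lasted seven days after spheroids formed for three days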
- RUN CONDITIONS: second compound 0.01 µM; first compound 0.0316 µM; active compounds read low
- Description: Multicellular complex tumor spheroid response to apoptosis pathway targeting inhibitors Alrizomadlin, Pelcitoclax, and Dasminapant in combination with a variety of drugs and investigational agents in selected tumor cell lines […] Compounds. […] If the clinical Cmax for an agent had not been determined, the highest concentration tested was 10 microM. […]
For each record, write down the corresponding viability, T/C.
Answers are plain numbers, in %.

Hey, quick one: what's viability, T/C for each of these?
1. O=C(c1ccc(F)c(F)c1Nc1ccc(I)cc1F)N1CC(O)([C@@H]2CCCCN2)C1 + CNC(C)C(=O)NC1CN(S(=O)(=O)c2cccc(S(=O)(=O)N3CCC4CCC(C(=O)NC(c5ccccc5)c5ccccc5)N4C(=O)C(NC(=O)C(C)NC)C3)c2)CCC2CCC(C(=O)NC(c3ccccc3)c3ccccc3)N2C1=O
2. NC1CCC(NC2CC2c2ccccc2)CC1 (centres undefined) + CNC(C)C(=O)NC1CN(S(=O)(=O)c2cccc(S(=O)(=O)N3CCC4CCC(C(=O)NC(c5ccccc5)c5ccccc5)N4C(=O)C(NC(=O)C(C)NC)C3)c2)CCC2CCC(C(=O)NC(c3ccccc3)c3ccccc3)N2C1=O
3. C=C(F)C(=O)N1CCN(c2nc(OCC3CCCN3C)nc3c2CCN(c2cccc4cccc(Cl)c24)C3)CC1CC#N (centres undefined) + CNC(C)C(=O)NC1CN(S(=O)(=O)c2cccc(S(=O)(=O)N3CCC4CCC(C(=O)NC(c5ccccc5)c5ccccc5)N4C(=O)C(NC(=O)C(C)NC)C3)c2)CCC2CCC(C(=O)NC(c3ccccc3)c3ccccc3)N2C1=O
4. COc1c(OCCCN2CCOCC2)ccc2c3n(c(=NC(=O)c4cnc(N)nc4)nc12)CCN3 + CNC(C)C(=O)NC1CN(S(=O)(=O)c2cccc(S(=O)(=O)N3CCC4CCC(C(=O)NC(c5ccccc5)c5ccccc5)N4C(=O)C(NC(=O)C(C)NC)C3)c2)CCC2CCC(C(=O)NC(c3ccccc3)c3ccccc3)N2C1=O
5. C#Cc1c(F)ccc2cc(O)cc(-c3ncc4c(N5CC6CCC(C5)N6)nc(OCC56CCCN5CC(F)C6)nc4c3F)c12 (centres undefined) + CNC(C)C(=O)NC1CN(S(=O)(=O)c2cccc(S(=O)(=O)N3CCC4CCC(C(=O)NC(c5ccccc5)c5ccccc5)N4C(=O)C(NC(=O)C(C)NC)C3)c2)CCC2CCC(C(=O)NC(c3ccccc3)c3ccccc3)N2C1=O

output:
1. 85.8
2. 77.4
3. 68.7
4. 44.7
5. 75.8

meta.source: PubChem BioAssay AID1963420
